Attribution: PubChem BioAssay AID1963874

- Tested on: 253994-281-T-J1-PDC KRAS-mutant spheroids with HUVEC/MSC, viability
- procedure-details: Anticancer human tumor 253994-281-T-J1-PDC patient-derived colorectal carcinoma cell line growth inhibition [KRAS2]
- run-parameters: second compound 3.16 µM; first compound 0.316 µM; active compounds read low
Consider the cut-off 20%. If the recorded viability, T/C is strictly smaller, the label is label 1; if not, the label is label 0.

>>> category("O=C(c1cc(Cc2n[nH]c(=O)c3ccccc23)ccc1F)N1CCN(C(=O)C2CC2)CC1 + CNCc1ccccc1-c1csc(C(C)Nc2nc(C)nc3cc(OC)c(OC)cc23)c1")
"label 1"

viability, T/C strictly < 20% for this molecule? CC1OCC2(CCN(c3cnc(Sc4ccnc(N)c4Cl)c(N)n3)CC2)C1N (stereo not given) + C=CC(=O)N1CCN(c2nc(=O)n(-c3c(C)ccnc3C(C)C)c3nc(-c4c(O)cccc4F)c(F)cc23)C(C)C1 label 0

I'd appreciate it if you could check whether COC(=O)c1ccc2c(C(=Nc3ccc(N(C)C(=O)CN4CCN(C)CC4)cc3)c3ccccc3)c(O)[nH]c2c1 + C=CC(=O)N1CCN(c2nc(OCC3CCCN3C)nc3c2CCN(c2cccc4cccc(C)c24)C3)CC1CC#N has viability, T/C smaller than 20%. label 1

Please indicate whether the reported viability, T/C of CC1OCC2(CCN(c3cnc(Sc4ccnc(N)c4Cl)c(N)n3)CC2)C1N (stereo not given) + CNCc1ccccc1-c1csc(C(C)Nc2nc(C)nc3cc(OC)c(OC)cc23)c1 is strictly below 20%. label 0

Take the molecule Cn1nccc1Nc1nccc(-c2cc3c(s2)C(C)(C)N(CCN2CCOCC2)C3=O)n1 + C=CC(=O)N1CCN(c2nc(OCC3CCCN3C)nc3c2CCN(c2cccc4cccc(C)c24)C3)CC1CC#N and say whether its viability, T/C is less than 20%. label 0

====

- Tested on: 253994-281-T-J1-PDC KRAS-mutant spheroids with HUVEC/MSC, viability
- procedure-details: Anticancer human tumor 253994-281-T-J1-PDC cell line growth inhibition [KRAS2]
- run-parameters: second compound 10 µM; first compound 0.316 µM; active compounds read low
experimental-readout: viability, T/C (%)
# number only, unit % dropped from output

Report viability, T/C for COC(=O)c1ccc2c(C(=Nc3ccc(N(C)C(=O)CN4CCN(C)CC4)cc3)c3ccccc3)c(O)[nH]c2c1 + COc1cc2nc(C)nc(NC(C)c3cc(N)cc(C(F)(F)F)c3)c2cc1OC1CCOC1 please. 48.6

What value of measured viability, T/C is listed for CCN1CCN(Cc2ccc(Nc3ncc(F)c(-c4cc(F)c5nc(C)n(C(C)C)c5c4)n3)nc2)CC1 + C=CC(=O)N1CCN(c2nc(=O)n(-c3c(C)ccnc3C(C)C)c3nc(-c4c(O)cccc4F)c(F)cc23)C(C)C1 ? 79.3

So what's the measured viability, T/C for this one? O=C(c1cc(Cc2n[nH]c(=O)c3ccccc23)ccc1F)N1CCN(C(=O)C2CC2)CC1 + CC1OCC2(CCN(c3cnc(Sc4ccnc(N)c4Cl)c(N)n3)CC2)C1N 115

Requested read-out: viability, T/C. Entry: COC(=O)c1ccc2c(C(=Nc3ccc(N(C)C(=O)CN4CCN(C)CC4)cc3)c3ccccc3)c(O)[nH]c2c1 + CC1OCC2(CCN(c3cnc(Sc4ccnc(N)c4Cl)c(N)n3)CC2)C1N 31.4

Need viability, T/C, item COC(=O)c1ccc2c(C(=Nc3ccc(N(C)C(=O)CN4CCN(C)CC4)cc3)c3ccccc3)c(O)[nH]c2c1 + C=CC(=O)N1CCN(c2nc(=O)n(-c3c(C)ccnc3C(C)C)c3nc(-c4c(O)cccc4F)c(F)cc23)C(C)C1 101

====

Each item that follows carries a reported viability, T/C.
- Test system: 253994-281-T-J1-PDC KRAS-mutant spheroids with HUVEC/MSC, viability
- procedure-details: Anticancer human tumor 253994-281-T-J1-PDC cell line growth inhibition [KRAS2];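 note: spheroids exposed to agents for seven days before readout; percent of DMSO vehicle control viability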
- run-parameters: second compound 1 µM; first compound 0.1 µM; active compounds read low
Numbers only; they are read as %.

>>> observed("COc1cc2nccc(Oc3ccc(NC(=O)C4(C(=O)Nc5ccc(F)cc5)CC4)cc3)c2cc1OC + C=CC(=O)N1CCN(c2nc(=O)n(-c3c(C)ccnc3C(C)C)c3nc(-c4c(O)cccc4F)c(F)cc23)C(C)C1")
112
>>> observed("COc1cc2nccc(Oc3ccc(NC(=O)C4(C(=O)Nc5ccc(F)cc5)CC4)cc3)c2cc1OC + CC1OCC2(CCN(c3cnc(Sc4ccnc(N)c4Cl)c(N)n3)CC2)C1N")
83.1
>>> observed("CC(C)NCC(C(=O)N1CCN(c2ncnc3c2C(C)CC3O)CC1)c1ccc(Cl)cc1 (stereo unspecified) + COc1cc2nc(C)nc(NC(C)c3cc(N)cc(C(F)(F)F)c3)c2cc1OC1CCOC1")
83.4
>>> observed("CCNC(=O)CC1N=C(c2ccc(Cl)cc2)c2cc(OC)ccc2-n2c(C)nnc21 (stereo unspecified) + COc1cc2nc(C)nc(NC(C)c3cc(N)cc(C(F)(F)F)c3)c2cc1OC1CCOC1")
95.4
>>> observed("CN(C)C/C=C/C(=O)Nc1cc2c(Nc3ccc(F)c(Cl)c3)ncnc2cc1O[C@H]1CCOC1 + C=CC(=O)N1CCN(c2nc(OCC3CCCN3C)nc3c2CCN(c2cccc4cccc(C)c24)C3)CC1CC#N")
62.2

Here is another compound to look at.
Entry under review: Cn1nccc1Nc1nccc(-c2cc3c(s2)C(C)(C)N(CCN2CCOCC2)C3=O)n1 + CC1OCC2(CCN(c3cnc(Sc4ccnc(N)c4Cl)c(N)n3)CC2)C1N . Reported viability, T/C? 64.6

====

viability, T/C by entry:
- System: 253994-281-T-J1-PDC KRAS-mutant spheroids with HUVEC/MSC, viability
- procedure-details: Anticancer human tumor 253994-281-T-J1-PDC cell line growth inhibition [KRAS2];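 note: spheroids exposed to agents for seven days before readout; percent of DMSO vehicle control viability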
- run-parameters: second compound 0.1 µM; first compound 10 µM; active compounds read low
Just the number in %, nothing appended.

Examples with answers:
>>> observed("CCNC(=O)CC1N=C(c2ccc(Cl)cc2)c2cc(OC)ccc2-n2c(C)nnc21 (stereo not drawn) + CNCc1ccccc1-c1csc(C(C)Nc2nc(C)nc3cc(OC)c(OC)cc23)c1")
88.9
>>> observed("CC(C)NCC(C(=O)N1CCN(c2ncnc3c2C(C)CC3O)CC1)c1ccc(Cl)cc1 (stereo not drawn) + COc1cc2nc(C)nc(NC(C)c3cc(N)cc(C(F)(F)F)c3)c2cc1OC1CCOC1")
97.1

Look at this molecule and give its reported viability, T/C. O=C(c1cc(Cc2n[nH]c(=O)c3ccccc23)ccc1F)N1CCN(C(=O)C2CC2)CC1 + C=CC(=O)N1CCN(c2nc(OCC3CCCN3C)nc3c2CCN(c2cccc4cccc(C)c24)C3)CC1CC#N 85.2

====

- Tested on: 253994-281-T-J1-PDC KRAS-mutant spheroids with HUVEC/MSC, viability
- procedure-details: Anticancer human tumor 253994-281-T-J1-PDC cell line growth inhibition [KRAS2];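 note: spheroids exposed to agents for seven days before readout; percent of DMSO vehicle control viability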
- run-parameters: second compound 1 µM; first compound 0.1 µM; active compounds read low
As shown below, each of these molecules has a reported viability, T/C value.

Consider the reported viability, T/C for these molecules:
>>> observed("O=C(c1cc(Cc2n[nH]c(=O)c3ccccc23)ccc1F)N1CCN(C(=O)C2CC2)CC1 + C=CC(=O)N1CCN(c2nc(=O)n(-c3c(C)ccnc3C(C)C)c3nc(-c4c(O)cccc4F)c(F)cc23)C(C)C1")
"91%"
>>> observed("CCN1CCN(Cc2ccc(Nc3ncc(F)c(-c4cc(F)c5nc(C)n(C(C)C)c5c4)n3)nc2)CC1 + CNCc1ccccc1-c1csc(C(C)Nc2nc(C)nc3cc(OC)c(OC)cc23)c1")
"76.3%"

Give the measured viability, T/C of COC(=O)c1ccc2c(C(=Nc3ccc(N(C)C(=O)CN4CCN(C)CC4)cc3)c3ccccc3)c(O)[nH]c2c1 + CNCc1ccccc1-c1csc(C(C)Nc2nc(C)nc3cc(OC)c(OC)cc23)c1 . 75%

====

- System: 253994-281-T-J1-PDC KRAS-mutant spheroids with HUVEC/MSC, viability
- procedure-details: Anticancer human tumor 253994-281-T-J1-PDC cell line growth inhibition [KRAS2];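 note: spheroids exposed to agents for seven days before readout; percent of DMSO vehicle control viability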
- run-parameters: second compound 1 µM; first compound 0.1 µM; active compounds read low
Parameter viability, T/C: see the listing below.
Give the value, in units of %, as a plain number.

Example results:
>>> observed("CC1OCC2(CCN(c3cnc(Sc4ccnc(N)c4Cl)c(N)n3)CC2)C1N (stereo not given) + CNCc1ccccc1-c1csc(C(C)Nc2nc(C)nc3cc(OC)c(OC)cc23)c1")
95.2
>>> observed("COC(=O)c1ccc2c(C(=Nc3ccc(N(C)C(=O)CN4CCN(C)CC4)cc3)c3ccccc3)c(O)[nH]c2c1 + C=CC(=O)N1CCN(c2nc(OCC3CCCN3C)nc3c2CCN(c2cccc4cccc(C)c24)C3)CC1CC#N")
85.8
>>> observed("CC1OCC2(CCN(c3cnc(Sc4ccnc(N)c4Cl)c(N)n3)CC2)C1N (stereo not given) + C=CC(=O)N1CCN(c2nc(=O)n(-c3c(C)ccnc3C(C)C)c3nc(-c4c(O)cccc4F)c(F)cc23)C(C)C1")
90.5
>>> observed("COc1cc(Nc2ncc3c(n2)-c2ccc(Cl)cc2C(c2c(F)cccc2OC)=NC3)ccc1C(=O)O + COc1cc2nc(C)nc(NC(C)c3cc(N)cc(C(F)(F)F)c3)c2cc1OC1CCOC1")
34.3

Kindly review the next molecule as well.
Fill blank: measured viability, T/C of the molecule CC(=O)OC12COC1CC(O)C1(C)C(=O)C(O)C3=C(C)C(OC(=O)C(O)C(NC(=O)OC(C)(C)C)c4ccccc4)CC(O)(C(OC(=O)c4ccccc4)C21)C3(C)C (stereo not given) + COc1cc2nc(C)nc(NC(C)c3cc(N)cc(C(F)(F)F)c3)c2cc1OC1CCOC1 is ____. 21.6
